Entries annotated with measured selectivity ratio
- assay-overview: Selectivity index, ratio of CC50 for mouse NIH3T3 cells to EC50 for mCMV infected in NIH3T3 cells
- Type: toxicity, cell-based
- experimental-parameters: read-out: Ratio CC50/EC50
quantity-kind: selectivity ratio

> print(dat)
                                test.smiles      quantity.kind  recorded.measurement
1  O=c1[nH]c(=O)n([C@H]2C[C@H](O)[C@@H](CO)O2)cc1C#Cc1ccc2c3cccc4cccc(c5cccc1c52)c43  selectivity ratio                > 3000
2  O=c1[nH]c(=O)n([C@@H]2O[C@H](CO)[C@@H](O)[C@@H]2O)cc1C#Cc1ccc2c3cccc4cccc(c5cccc1c52)c43  selectivity ratio                > 3000

---

selectivity ratio for assorted molecules
- assay-overview: Selectivity index, ratio of CC50 for African green monkey Vero cells to EC50 for HSV-1 infected in Vero cells
- Format: toxicity, cell-based
- experimental-parameters: read-out: Ratio CC50/EC50
quantity-kind: selectivity ratio

> print(dat)
                                test.smiles  recorded.measurement
1  O=c1[nH]c(=O)n([C@@H]2O[C@H](CO)[C@@H](O)[C@@H]2O)cc1C#Cc1ccc2c3cccc4cccc(c5cccc1c52)c43                > 3000
2  O=c1[nH]c(=O)n([C@H]2C[C@H](O)[C@@H](CO)O2)cc1C#Cc1ccc2c3cccc4cccc(c5cccc1c52)c43                > 3000

---

- assay-overview: Selectivity index, ratio of CC50 for African green monkey Vero cells to EC50 for Sindbis infected in Vero cells
- Format: toxicity, cell-based
- experimental-parameters: read-out: Ratio CC50/EC50
Form field: selectivity ratio (one value per entry).
quantity-kind: selectivity ratio

> print(dat)
                                test.smiles  recorded.measurement
1  O=c1[nH]c(=O)n([C@@H]2O[C@H](CO)[C@@H](O)[C@@H]2O)cc1C#Cc1ccc2c3cccc4cccc(c5cccc1c52)c43                > 3000
2  O=c1[nH]c(=O)n([C@H]2C[C@H](O)[C@@H](CO)O2)cc1C#Cc1ccc2c3cccc4cccc(c5cccc1c52)c43                > 3000

---

- assay-overview: Selectivity index, ratio of CC50 for MDCK cells to EC50 for H3N2 infected in MDCK cells
- Type: toxicity, cell-based
- experimental-parameters: dog, read-out: Ratio CC50/EC50
quantity-kind: selectivity ratio

> print(dat)
                                test.smiles  recorded.measurement
1  O=c1[nH]c(=O)n([C@H]2C[C@H](O)[C@@H](CO)O2)cc1C#Cc1ccc2c3cccc4cccc(c5cccc1c52)c43                > 3000
2  O=c1[nH]c(=O)n([C@@H]2O[C@H](CO)[C@@H](O)[C@@H]2O)cc1C#Cc1ccc2c3cccc4cccc(c5cccc1c52)c43                > 3000

---

- System: Hepatitis C virus
- assay-overview: Antiviral activity against HCV JFH1 infected in human Huh7.5 cells assessed as NS3 expression by western blot analysis
- Format: functional, organism-based, Hepacivirus hominis
- experimental-parameters: JFH1, Huh7.5
pEC50: −log10 of the molar value.
quantity-kind: pEC50

> print(dat)
                                test.smiles  recorded.measurement
1  O=c1[nH]c(=O)n([C@H]2C[C@H](O)[C@@H](CO)O2)cc1C#Cc1ccc2c3cccc4cccc(c5cccc1c52)c43          6.55 to 8.70
2  O=c1[nH]c(=O)n([C@@H]2O[C@H](CO)[C@@H](O)[C@@H]2O)cc1C#Cc1ccc2c3cccc4cccc(c5cccc1c52)c43          6.55 to 8.70

---

- System: Enterovirus A71
- assay-overview: Antiviral activity against Enterovirus A71 isolate 46973 infected in human RD cells assessed as reduction in virus induced cytopathic effect preincubated with viral suspension for 1 hr followed by cell addition measured after 5 to 7 days
- Type: functional, organism-based
- experimental-parameters: Enterovirus A, isolate 46973, RD; read-out: EC50
pEC50: −log10 of the molar value.
Entries and their measured pEC50 follow.
quantity-kind: pEC50

> print(dat)
                                test.smiles  quantity.kind  recorded.measurement
1  CC(C)(CO)[C@@H](O)CNC(=O)Cn1cc(C#Cc2ccc3c4cccc5cccc(c6cccc2c63)c54)c(=O)[nH]c1=O          pEC50                  3.97
2  O=C(Cn1cc(C#Cc2ccc3c4cccc5cccc(c6cccc2c63)c54)c(=O)[nH]c1=O)NCCCCO          pEC50                  4.25

---

- Tested on: Vero
- assay-overview: Cytotoxicity against African green monkey Vero cells assessed as formation of syncytium-like patterns of cells at 50 uM after 7 days by microscopic method
- Format: cell-based
- experimental-parameters: chlorocebus sabaeus, 168 h
quantity-kind: Activity

> print(dat)
                                test.smiles  quantity.kind  recorded.measurement
1  O=C(Cn1cc(C#Cc2ccc3c4cccc5cccc(c6cccc2c63)c54)c(=O)[nH]c1=O)NCCCCO       Activity                 Toxic
2  CC(C)(C)C(=O)OCn1c(=O)c(C#Cc2ccc3c4cccc5cccc(c6cccc2c63)c54)cn(CC(=O)N(CCO)CCO)c1=O       Activity                 Toxic
3  O=C(Cn1cc(C#Cc2ccc3c4cccc5cccc(c6cccc2c63)c54)c(=O)[nH]c1=O)NCCCCCCO       Activity                 Toxic
4  CC(C)(C)C(=O)OCn1c(=O)c(C#Cc2ccc3c4cccc5cccc(c6cccc2c63)c54)cn(CC(=O)O)c1=O       Activity                 Toxic

---

- assay-overview: Cytotoxicity against human RD cells assessed as reduction in cell viability after 7 days by microscopic method
- Format: cell-based
quantity-kind: CC50 at 168 h (µM)

> print(dat)
                                test.smiles  qualifier  recorded.measurement
1  O=C(Cn1cc(C#Cc2ccc3c4cccc5cccc(c6cccc2c63)c54)c(=O)[nH]c1=O)NCCCCO          =                    81
2  CC(C)(CO)[C@@H](O)CNC(=O)Cn1cc(C#Cc2ccc3c4cccc5cccc(c6cccc2c63)c54)c(=O)[nH]c1=O          =                    76
3  CC(C)(C)C(=O)OCn1c(=O)c(C#Cc2ccc3c4cccc5cccc(c6cccc2c63)c54)cn(CC(=O)NCCCCCCO)c1=O          =                    38
4  CC(C)(C)C(=O)OCn1c(=O)c(C#Cc2ccc3c4cccc5cccc(c6cccc2c63)c54)cn(CC(=O)NC[C@H](O)C(C)(C)CO)c1=O          =                    19
5  O=C(Cn1cc(C#Cc2ccc3c4cccc5cccc(c6cccc2c63)c54)c(=O)[nH]c1=O)NCCCCCO          >                   104

---

- assay-overview: Cytotoxicity against African green monkey Vero cells assessed as reduction in cell viability after 24 hrs by microscopic method
- Format: cell-based
- experimental-parameters: chlorocebus sabaeus
quantity-kind: CC50 at 24 h (µM)

> print(dat)
                                 test.smiles  readout.units  qualifier  recorded.measurement
 1  CC(C)(CO)[C@@H](O)CNC(=O)Cn1cc(C#Cc2ccc3c4cccc5cccc(c6cccc2c63)c54)c(=O)[nH]c1=O             µM          =                    38
 2  CC(C)(C)C(=O)OCn1c(=O)c(C#Cc2ccc3c4cccc5cccc(c6cccc2c63)c54)cn(CC(=O)NCCCCO)c1=O             µM          >                    50
 3  CC(C)(C)C(=O)OCn1c(=O)c(C#Cc2ccc3c4cccc5cccc(c6cccc2c63)c54)cn(CC(=O)NCCO)c1=O             µM          =                    32
 4  O=C(Cn1cc(C#Cc2ccc3c4cccc5cccc(c6cccc2c63)c54)c(=O)[nH]c1=O)NCCCO             µM          >                    50
 5  O=C(Cn1cc(C#Cc2ccc3c4cccc5cccc(c6cccc2c63)c54)c(=O)[nH]c1=O)NCCCCCCO             µM          =                    38
 6  CC(C)(C)C(=O)OCn1c(=O)c(C#Cc2ccc3c4cccc5cccc(c6cccc2c63)c54)cn(CC(=O)N(CCO)CCO)c1=O             µM          =                    38
 7  O=C(Cn1cc(C#Cc2ccc3c4cccc5cccc(c6cccc2c63)c54)c(=O)[nH]c1=O)N(CCO)CCO             µM          >                    50
 8  CC(C)(C)C(=O)OCn1c(=O)c(C#Cc2ccc3c4cccc5cccc(c6cccc2c63)c54)cn(CC(=O)NCCCCCCO)c1=O             µM          =                    38
 9  CCCCNC(=O)Cn1cc(C#Cc2ccc3c4cccc5cccc(c6cccc2c63)c54)c(=O)n(COC(=O)C(C)(C)C)c1=O             µM          >                    50
10  CC(C)(C)C(=O)OCn1c(=O)c(C#Cc2ccc3c4cccc5cccc(c6cccc2c63)c54)cn(CC(=O)NCCCCCO)c1=O             µM          =                    32
11  O=C(Cn1cc(C#Cc2ccc3c4cccc5cccc(c6cccc2c63)c54)c(=O)[nH]c1=O)NCCCCO             µM          >                    50
12  O=C(Cn1cc(C#Cc2ccc3c4cccc5cccc(c6cccc2c63)c54)c(=O)[nH]c1=O)NCCCCCO             µM          >                    50
13  CC(C)(C)C(=O)OCn1c(=O)c(C#Cc2ccc3c4cccc5cccc(c6cccc2c63)c54)cn(CC(=O)NC[C@H](O)C(C)(C)CO)c1=O             µM          >                    50
14  O=C(O)Cn1cc(C#Cc2ccc3c4cccc5cccc(c6cccc2c63)c54)c(=O)[nH]c1=O             µM          >                    50
15  CC(C)(C)C(=O)OCn1c(=O)c(C#Cc2ccc3c4cccc5cccc(c6cccc2c63)c54)cn(CC(=O)NCCCO)c1=O             µM          =                    38

All figures here come from ChEMBL document CHEMBL4346677.
